- Test system: HT-29
- protocol.details: Cytotoxicity against human HT-29 cells assessed as growth inhibition at 10 uM after 48 hrs by coulter counter analysis
- Format: functional
- condition.context: HT-29, 48 h, read-out: GI
quantity.measured: inhibition of growth at 10 µM (%)

entry.smiles: O=C(CSc1nc2ccccc2c(=O)n1CCc1ccccc1)Nc1ccc(F)cc1
unit.tag: %
qualifying.sign: =
data.value: 10

entry.smiles: O=C(CSc1nc2ccccc2c(=O)n1CCc1ccccc1)Nc1ccccc1
unit.tag: %
qualifying.sign: <
data.value: 10

entry.smiles: NC(=O)CSc1nc2ccccc2c(=O)n1CCc1ccccc1
unit.tag: %
qualifying.sign: <
data.value: 10

entry.smiles: COc1cc(NC(=O)CCSc2nc3ccccc3c(=O)n2CCc2ccccc2)cc(OC)c1OC
unit.tag: %
qualifying.sign: =
data.value: 18

entry.smiles: O=C(CSc1nc2ccccc2c(=O)n1CCc1ccccc1)Oc1ccccc1
unit.tag: %
qualifying.sign: <
data.value: 10

entry.smiles: O=C(CSc1nc2ccccc2c(=O)n1CCc1ccccc1)Nc1ccc(Cl)cc1
unit.tag: %
qualifying.sign: <
data.value: 10

entry.smiles: COc1cc(NC(=O)CSc2nc3ccccc3c(=O)n2CCc2ccccc2)cc(OC)c1OC
unit.tag: %
qualifying.sign: =
data.value: 85

entry.smiles: CC(=O)c1ccc(NC(=O)CSc2nc3ccccc3c(=O)n2CCc2ccccc2)cc1
unit.tag: %
qualifying.sign: =
data.value: 12

entry.smiles: COc1cc(OC(=O)CSc2nc3ccccc3c(=O)n2CCc2ccccc2)cc(OC)c1OC
unit.tag: %
qualifying.sign: <
data.value: 10

entry.smiles: CCOC(=O)c1ccc(NC(=O)CSc2nc3ccccc3c(=O)n2CCc2ccccc2)cc1
unit.tag: %
qualifying.sign: =
data.value: 12

* * *

- System: MDA-MB-231
- protocol.details: Cytotoxicity against human MDA-MB-231 cells assessed as growth inhibition at 10 uM after 48 hrs by coulter counter analysis
- Type: functional
- condition.context: MDA-MB-231, 48 h, read-out: GI
// label = 1.0 if inhibition of growth at 10 µM is not less than 40%, otherwise 0.0

entry.smiles: O=C(CSc1nc2ccccc2c(=O)n1CCc1ccccc1)Oc1ccc(Cl)cc1
assigned.class: 0.0
--
entry.smiles: O=C(CSc1nc2ccccc2c(=O)n1CCc1ccccc1)NCc1ccccc1
assigned.class: 0.0
--
entry.smiles: O=C(CSc1nc2ccccc2c(=O)n1CCc1ccccc1)Nc1ccccc1
assigned.class: 0.0
--
entry.smiles: CCOC(=O)c1ccc(NC(=O)CSc2nc3ccccc3c(=O)n2CCc2ccccc2)cc1
assigned.class: 1.0
--
entry.smiles: O=C(CSc1nc2ccccc2c(=O)n1CCc1ccccc1)Nc1ccccc1C(=O)O
assigned.class: 1.0
--
entry.smiles: O=C(CSc1nc2ccccc2c(=O)n1CCc1ccccc1)Nc1ccc(Cl)cc1
assigned.class: 0.0

* * *

- System: NCI-H522
- protocol.details: Cytotoxicity against human NCI-H522 cells assessed as growth inhibition at 10 uM after 48 hrs by coulter counter analysis
- Type: functional
- condition.context: NCI-H522, 48 h, read-out: GI
# inhibition of growth at 10 µM per entry

entry.smiles: O=C(CSc1nc2ccccc2c(=O)n1CCc1ccccc1)Nc1ccc(F)cc1
qualifying.sign: =
inhibition of growth at 10 µM / %: 31

entry.smiles: COc1ccc(NC(=O)CSc2nc3ccccc3c(=O)n2CCc2ccccc2)cc1
qualifying.sign: <
inhibition of growth at 10 µM / %: 10

entry.smiles: O=C(CSc1nc2ccccc2c(=O)n1CCc1ccccc1)NCc1ccccc1
qualifying.sign: =
inhibition of growth at 10 µM / %: 28

entry.smiles: CCOc1ccc(NC(=O)CSc2nc3ccccc3c(=O)n2CCc2ccccc2)cc1
qualifying.sign: =
inhibition of growth at 10 µM / %: 11

entry.smiles: CC(=O)c1ccc(NC(=O)CSc2nc3ccccc3c(=O)n2CCc2ccccc2)cc1
qualifying.sign: =
inhibition of growth at 10 µM / %: 51

entry.smiles: O=C(CSc1nc2ccccc2c(=O)n1CCc1ccccc1)Nc1cc(Cl)ccc1C(=O)O
qualifying.sign: <
inhibition of growth at 10 µM / %: 10

entry.smiles: O=C(CSc1nc2ccccc2c(=O)n1CCc1ccccc1)Nc1ccccc1
qualifying.sign: =
inhibition of growth at 10 µM / %: 10

entry.smiles: COc1cc(OC(=O)CSc2nc3ccccc3c(=O)n2CCc2ccccc2)cc(OC)c1OC
qualifying.sign: <
inhibition of growth at 10 µM / %: 10

entry.smiles: O=C(CSc1nc2ccccc2c(=O)n1CCc1ccccc1)Oc1ccc(Cl)cc1
qualifying.sign: =
inhibition of growth at 10 µM / %: 37

entry.smiles: COc1cc(NC(=O)CSc2nc3ccccc3c(=O)n2CCc2ccccc2)cc(OC)c1OC
qualifying.sign: >
inhibition of growth at 10 µM / %: 100

entry.smiles: Cc1ccc(NC(=O)CSc2nc3ccccc3c(=O)n2CCc2ccccc2)cc1
qualifying.sign: =
inhibition of growth at 10 µM / %: 22

entry.smiles: O=C(CSc1nc2ccccc2c(=O)n1CCc1ccccc1)Nc1ccccc1C(=O)O
qualifying.sign: =
inhibition of growth at 10 µM / %: 85

entry.smiles: COc1cc(NC(=O)CCSc2nc3ccccc3c(=O)n2CCc2ccccc2)cc(OC)c1OC
qualifying.sign: =
inhibition of growth at 10 µM / %: 52

entry.smiles: O=C(CSc1nc2ccccc2c(=O)n1CCc1ccccc1)Oc1ccccc1
qualifying.sign: =
inhibition of growth at 10 µM / %: 37

entry.smiles: O=C(CSc1nc2ccccc2c(=O)n1CCc1ccccc1)Nc1ccc(Cl)cc1
qualifying.sign: =
inhibition of growth at 10 µM / %: 45

entry.smiles: CCOC(=O)c1ccc(NC(=O)CSc2nc3ccccc3c(=O)n2CCc2ccccc2)cc1
qualifying.sign: =
inhibition of growth at 10 µM / %: 26

* * *

- Test system: SF-295
- protocol.details: Cytotoxicity against human SF295 cells assessed as growth inhibition at 10 uM after 48 hrs by coulter counter analysis
- Assay type: functional
- condition.context: SF-295, 48 h, read-out: GI
# inhibition of growth at 10 µM per entry

entry.smiles: O=C(CSc1nc2ccccc2c(=O)n1CCc1ccccc1)Nc1ccccc1C(=O)O
tested.on: SF-295
qualifying.sign: =
inhibition of growth at 10 µM [%]: 18
--
entry.smiles: CC(=O)c1ccc(NC(=O)CSc2nc3ccccc3c(=O)n2CCc2ccccc2)cc1
tested.on: SF-295
qualifying.sign: =
inhibition of growth at 10 µM [%]: 21
--
entry.smiles: COc1cc(NC(=O)CSc2nc3ccccc3c(=O)n2CCc2ccccc2)cc(OC)c1OC
tested.on: SF-295
qualifying.sign: =
inhibition of growth at 10 µM [%]: 49
--
entry.smiles: COc1ccc(NC(=O)CSc2nc3ccccc3c(=O)n2CCc2ccccc2)cc1
tested.on: SF-295
qualifying.sign: =
inhibition of growth at 10 µM [%]: 21
--
entry.smiles: O=C(CSc1nc2ccccc2c(=O)n1CCc1ccccc1)Nc1ccc(F)cc1
tested.on: SF-295
qualifying.sign: =
inhibition of growth at 10 µM [%]: 13
--
entry.smiles: O=C(CSc1nc2ccccc2c(=O)n1CCc1ccccc1)Oc1ccccc1
tested.on: SF-295
qualifying.sign: =
inhibition of growth at 10 µM [%]: 20
--
entry.smiles: O=C(CSc1nc2ccccc2c(=O)n1CCc1ccccc1)NCc1ccccc1
tested.on: SF-295
qualifying.sign: =
inhibition of growth at 10 µM [%]: 27
--
entry.smiles: CCOC(=O)c1ccc(NC(=O)CSc2nc3ccccc3c(=O)n2CCc2ccccc2)cc1
tested.on: SF-295
qualifying.sign: =
inhibition of growth at 10 µM [%]: 25
--
entry.smiles: O=C(CSc1nc2ccccc2c(=O)n1CCc1ccccc1)Nc1cc(Cl)ccc1C(=O)O
tested.on: SF-295
qualifying.sign: <
inhibition of growth at 10 µM [%]: 10
--
entry.smiles: O=C(CSc1nc2ccccc2c(=O)n1CCc1ccccc1)Nc1ccccc1
tested.on: SF-295
qualifying.sign: <
inhibition of growth at 10 µM [%]: 10
--
entry.smiles: COc1cc(OC(=O)CSc2nc3ccccc3c(=O)n2CCc2ccccc2)cc(OC)c1OC
tested.on: SF-295
qualifying.sign: =
inhibition of growth at 10 µM [%]: 13
--
entry.smiles: COc1cc(NC(=O)CCSc2nc3ccccc3c(=O)n2CCc2ccccc2)cc(OC)c1OC
tested.on: SF-295
qualifying.sign: =
inhibition of growth at 10 µM [%]: 10

* * *

- Tested on: SK-OV-3
- protocol.details: Cytotoxicity against human SKOV3 cells assessed as growth inhibition at 10 uM after 48 hrs by coulter counter analysis
- Type: functional
- condition.context: SK-OV-3, 48 h, read-out: GI
# inhibition of growth at 10 µM per entry

entry.smiles: NC(=O)CSc1nc2ccccc2c(=O)n1CCc1ccccc1
qualifying.sign: <
inhibition of growth at 10 µM, %: 10

entry.smiles: COc1cc(OC(=O)CSc2nc3ccccc3c(=O)n2CCc2ccccc2)cc(OC)c1OC
qualifying.sign: <
inhibition of growth at 10 µM, %: 10

entry.smiles: O=C(CSc1nc2ccccc2c(=O)n1CCc1ccccc1)Nc1ccccc1
qualifying.sign: =
inhibition of growth at 10 µM, %: 14

entry.smiles: CC(=O)c1ccc(NC(=O)CSc2nc3ccccc3c(=O)n2CCc2ccccc2)cc1
qualifying.sign: =
inhibition of growth at 10 µM, %: 17

entry.smiles: COc1cc(NC(=O)CSc2nc3ccccc3c(=O)n2CCc2ccccc2)cc(OC)c1OC
qualifying.sign: >
inhibition of growth at 10 µM, %: 100

entry.smiles: O=C(CSc1nc2ccccc2c(=O)n1CCc1ccccc1)Oc1ccc(Cl)cc1
qualifying.sign: =
inhibition of growth at 10 µM, %: 28

entry.smiles: COc1ccc(NC(=O)CSc2nc3ccccc3c(=O)n2CCc2ccccc2)cc1
qualifying.sign: =
inhibition of growth at 10 µM, %: 25

entry.smiles: O=C(CSc1nc2ccccc2c(=O)n1CCc1ccccc1)Nc1ccc(F)cc1
qualifying.sign: =
inhibition of growth at 10 µM, %: 25

entry.smiles: O=C(CSc1nc2ccccc2c(=O)n1CCc1ccccc1)Nc1ccccc1C(=O)O
qualifying.sign: =
inhibition of growth at 10 µM, %: 53

entry.smiles: Cc1ccc(NC(=O)CSc2nc3ccccc3c(=O)n2CCc2ccccc2)cc1
qualifying.sign: =
inhibition of growth at 10 µM, %: 20

entry.smiles: O=C(CSc1nc2ccccc2c(=O)n1CCc1ccccc1)Nc1ccc(Cl)cc1
qualifying.sign: =
inhibition of growth at 10 µM, %: 43

entry.smiles: O=C(CSc1nc2ccccc2c(=O)n1CCc1ccccc1)Oc1ccccc1
qualifying.sign: =
inhibition of growth at 10 µM, %: 28

entry.smiles: CCOc1ccc(NC(=O)CSc2nc3ccccc3c(=O)n2CCc2ccccc2)cc1
qualifying.sign: <
inhibition of growth at 10 µM, %: 10

entry.smiles: O=C(CSc1nc2ccccc2c(=O)n1CCc1ccccc1)Nc1cc(Cl)ccc1C(=O)O
qualifying.sign: <
inhibition of growth at 10 µM, %: 10

entry.smiles: CCOC(=O)c1ccc(NC(=O)CSc2nc3ccccc3c(=O)n2CCc2ccccc2)cc1
qualifying.sign: =
inhibition of growth at 10 µM, %: 19

entry.smiles: O=C(CSc1nc2ccccc2c(=O)n1CCc1ccccc1)NCc1ccccc1
qualifying.sign: =
inhibition of growth at 10 µM, %: 14

entry.smiles: COc1cc(NC(=O)CCSc2nc3ccccc3c(=O)n2CCc2ccccc2)cc(OC)c1OC
qualifying.sign: =
inhibition of growth at 10 µM, %: 44
